Biological target: Progesterone receptor (Homo sapiens)
Test: qHTS assay to identify small molecule agonists of the progesterone receptor (PR) signaling pathway (AID 1346784); also: nearly all actives have a fitted effect of over 30% in size
Conditions: PR-UAS-bla HEK293T, beta-lactamase FRET ratio, 16 h; series mostly up to 92.4 µM
Inconclusive results are not listed. Active and inactive are the calls of the source. Calls follow the shape of the full dose curve.
outcome_measure: outcome

| compound | outcome |
| --- | --- |
| CC(C)CC(C)O (centres undefined) | inactive |
| CCOC(=O)c1ccc(N)cc1 | inactive |
| CCCCCCCCCCO | inactive |
| COc1ccc(C)cc1N | inactive |
| O=C1C(c2[nH]c3ccccc3c2O)=Nc2ccccc21 | inactive |

Now, please, on to the next compound.
Ask | Report measured outcome; entry is "Cc1ccc(C(C)C)c(O)c1"
Reply | inactive
